# subject of test: T1, Anti-CD28 Fab (SEQ ID NOs: 696, 697)
# T1 construct: Biotinylated and captured on neutravidin coated plates in the phage ELISA
# assay name: phage ELISA; captured anti-CD28 Fab pre-incubated with CD28 antigen as competitor, anti-M13 HRP;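 also: crude clonal phage supernatants added without washing after CD28 pre-incubation, bound phage detected with HRP anti-M13 antibody, reference wells got blocking buffer lacking CD28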
# key: entry, value: Phage binding ELISA, Anti-CD28 Fab signal in the presence of CD28
Just the number.

binder	test value
YCDGHLLEYKAKCL [Phage-953]	0.07
YCDGHAQEYMDKCL [Phage-950]	0.08
YCEGHVTEYMQKCL [Phage-949]	0.08

Determine its reported Phage binding ELISA, Anti-CD28 Fab signal in the presence of CD28: YCDGHSLEYIGKCL [Phage-944] 0.06

Check the records and state Phage binding ELISA, Anti-CD28 Fab signal in the presence of CD28 for YCDGHSEAFMQKCL [Phage-945] 0.07

Fill in Phage binding ELISA, Anti-CD28 Fab signal in the presence of CD28 for record YCAGHLPEYMGKCL [Phage-946] 0.07

Retrieve Phage binding ELISA, Anti-CD28 Fab signal in the presence of CD28 measured for YCAGHSPQYMEKCL [Phage-956] and print it. 0.06

Fill in Phage binding ELISA, Anti-CD28 Fab signal in the presence of CD28 for record YCEGHLEEYMAKCL [Phage-954] 0.07

For the binder YCDGHLSEYMSKCL [Phage-948] , report Phage binding ELISA, Anti-CD28 Fab signal in the presence of CD28. 0.06

Tell me its Phage binding ELISA, Anti-CD28 Fab signal in the presence of CD28 given YCAGHLAIYMSKCL [Phage-947] as the entry. 0.08

Please report the measured Phage binding ELISA, Anti-CD28 Fab signal in the presence of CD28 for YCDGHSPEYMLKCL [Phage-955] 0.07

Annotate the binder YCDGHELKYMLKCL [Phage-952] with its measured Phage binding ELISA, Anti-CD28 Fab signal in the presence of CD28. 0.08

Please supply the value of reported Phage binding ELISA, Anti-CD28 Fab signal in the presence of CD28 for the item YCEGHAPQYIMKCL [Phage-951] 0.06
